# assayed.target: SARS-CoV-2 P.1 spike protein (SARS-CoV-2 P.1 (Gamma), UniProt P0DTC2 13-1213)
# method.description: ELISA
readout.kind: pIC50
Keep it numeric: pIC50 is minus log10 of the concentration in mol/L.

# input State its pIC50: 6-O12-A (antibody, V domains shown) VH: QVQLQQPGTELVKPGASVKLSCKASGYTFTSYWMHWVKQRPGQGLEWIGNINPSNGGTNYNEKFRSKATLTVDKSSSTAYMQLSSLTSEDSAVYYCARLGWFLPLGSWGQGTTLTVSS VL: QIVLTQSPAIMSASLGEVITLTCSASSSVSYMHWYQQKSGTSPKLLIYSTSNLASGVPSRFSGSGSGTFYSLTISSVEAEDAADYYCHQWSGYMYTFGGGTKLEIK
# output 8.10

// provenance: patent US20230115257A1
